Source: ChEMBL document CHEMBL5365471

# assaySystem: Nuclear factor erythroid 2-related factor 2 (Homo sapiens) (UniProt Q16236)
# Sequence (Q16236 whole entry): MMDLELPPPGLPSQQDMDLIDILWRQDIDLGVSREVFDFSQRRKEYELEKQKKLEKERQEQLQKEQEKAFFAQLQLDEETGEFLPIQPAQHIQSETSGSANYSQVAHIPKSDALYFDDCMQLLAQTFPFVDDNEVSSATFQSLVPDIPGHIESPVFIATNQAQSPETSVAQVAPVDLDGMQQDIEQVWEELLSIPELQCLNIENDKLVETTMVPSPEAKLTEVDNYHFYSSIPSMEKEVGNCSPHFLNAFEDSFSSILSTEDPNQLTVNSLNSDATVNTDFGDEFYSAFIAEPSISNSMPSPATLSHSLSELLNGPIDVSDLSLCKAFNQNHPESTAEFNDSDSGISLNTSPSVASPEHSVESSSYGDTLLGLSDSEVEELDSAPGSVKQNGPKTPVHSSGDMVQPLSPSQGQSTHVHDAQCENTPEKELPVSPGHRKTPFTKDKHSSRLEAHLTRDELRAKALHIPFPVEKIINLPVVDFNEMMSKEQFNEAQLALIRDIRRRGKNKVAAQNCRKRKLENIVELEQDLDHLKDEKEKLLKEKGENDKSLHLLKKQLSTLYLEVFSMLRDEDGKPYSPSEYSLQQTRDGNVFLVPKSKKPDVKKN
# methodNotes: Induction of Nrf2/ARE activation in human Hela cells at 5 uM measured after 12 to 24 hrs by luciferase reporter gene assay relative to control
# Assay type: cell-based
# recordedConditions: filed as activator, time 12-24 hrs
# fold change (FC) per record follows
The answer should be written as a number, with no unit following it.

N#Cc1ccc(C(=O)N2CCN(Cc3noc(Cc4c[nH]c5ccccc45)n3)CC2)cc1 : 1.25
COc1cccc(/C=C/C(=O)N2CCN(Cc3noc(Cc4c[nH]c5ccccc45)n3)CC2)c1 : 1.89
Cc1ccc(C(=O)N2CCN(Cc3noc(Cc4c[nH]c5ccccc45)n3)CC2)cc1 : 1.11
Cc1ccc(CN2CCN(Cc3noc(Cc4c[nH]c5ccccc45)n3)CC2)cc1 : 1.78
O=C(/C=C/c1ccc(O)cc1)N1CCN(Cc2noc(Cc3c[nH]c4ccccc34)n2)CC1 : 3.44

Noted for O=C(/C=C/c1ccccc1O)N1CCN(Cc2noc(Cc3c[nH]c4ccccc34)n2)CC1 : its fold change (FC) reads 3.01

Noted for O=C(/C=C/c1ccc(Cl)c(Cl)c1)N1CCN(Cc2noc(Cc3c[nH]c4ccccc34)n2)CC1 : its fold change (FC) reads 3.76

Noted for COc1ccc(/C=C/C(=O)N2CCN(Cc3noc(Cc4c[nH]c5ccccc45)n3)CC2)cc1OC : its fold change (FC) reads 2.93

Noted for O=C(/C=C/c1ccc(Cl)cc1)N1CCN(Cc2noc(Cc3c[nH]c4ccccc34)n2)CC1 : its fold change (FC) reads 2.24

###

# assaySystem: Nuclear factor erythroid 2-related factor 2 (Homo sapiens)
# methodNotes: Induction of Nrf2/ARE activation in human Hela cells at 20 uM measured after 12 to 24 hrs by luciferase reporter gene assay relative to control
# Assay type: cell-based
# recordedConditions: filed as activator, time 12-24 hrs
reportedMetric: fold change (FC)

Here is how some molecules turned out for fold change (FC).
O=C(/C=C/c1ccc(Cl)c(Cl)c1)N1CCN(Cc2noc(Cc3c[nH]c4ccccc34)n2)CC1 : 7.09
COc1cc(/C=C/C(=O)N2CCN(Cc3noc(Cc4c[nH]c5ccccc45)n3)CC2)cc(OC)c1OC : 6.86
CS(=O)(=O)c1ccc(CN2CCN(Cc3noc(Cc4c[nH]c5ccccc45)n3)CC2)cc1 : 3.78
Cc1ccc(C(=O)N2CCN(Cc3noc(Cc4c[nH]c5ccccc45)n3)CC2)cc1 : 1.36
N#Cc1ccc(CN2CCN(Cc3noc(Cc4c[nH]c5ccccc45)n3)CC2)cc1 : 5.18
O=C(/C=C/c1ccccc1O)N1CCN(Cc2noc(Cc3c[nH]c4ccccc34)n2)CC1 : 6.08

Noted for COc1cc(/C=C/C(=O)N2CCN(Cc3noc(Cc4c[nH]c5ccccc45)n3)CC2)ccc1O : its fold change (FC) reads 3.56

Noted for COc1ccc(/C=C/C(=O)N2CCN(Cc3noc(Cc4c[nH]c5ccccc45)n3)CC2)cc1 : its fold change (FC) reads 2.07

Noted for Brc1cccc(CN2CCN(Cc3noc(Cc4c[nH]c5ccccc45)n3)CC2)c1 : its fold change (FC) reads 1.54

Noted for COc1cc(/C=C/C(=O)N2CCN(Cc3noc(Cc4c[nH]c5ccccc45)n3)CC2)cc(OC)c1O : its fold change (FC) reads 3.08

###

# assaySystem: Nuclear factor erythroid 2-related factor 2 (Homo sapiens) (UniProt Q16236)
# methodNotes: Induction of Nrf2/ARE activation in human Hela cells at 1 uM measured after 12 to 24 hrs by luciferase reporter gene assay relative to control
# Assay type: cell-based
# recordedConditions: filed as activator, time 12-24 hrs
# fold change (FC) per record follows
The answer should be written as a number, with no unit following it.

Brc1ccc(CN2CCN(Cc3noc(Cc4c[nH]c5ccccc45)n3)CC2)cc1 : 1.45
CS(=O)(=O)c1ccc(C(=O)N2CCN(Cc3noc(Cc4c[nH]c5ccccc45)n3)CC2)cc1 : 1.45
COc1cccc(/C=C/C(=O)N2CCN(Cc3noc(Cc4c[nH]c5ccccc45)n3)CC2)c1OC : 2.15
N#Cc1ccc(C(=O)N2CCN(Cc3noc(Cc4c[nH]c5ccccc45)n3)CC2)cc1 : 1.18
COc1cccc(/C=C/C(=O)N2CCN(Cc3noc(Cc4c[nH]c5ccccc45)n3)CC2)c1 : 1.09
Fc1cccc(CN2CCN(Cc3noc(Cc4c[nH]c5ccccc45)n3)CC2)c1 : 1.36
O=C(c1ccc(Br)cc1)N1CCN(Cc2noc(Cc3c[nH]c4ccccc34)n2)CC1 : 1.15
CS(=O)(=O)c1ccc(CN2CCN(Cc3noc(Cc4c[nH]c5ccccc45)n3)CC2)cc1 : 1.11

Alright, here's another compound for you.
Sample COc1ccc(/C=C/C(=O)N2CCN(Cc3noc(Cc4c[nH]c5ccccc45)n3)CC2)cc1OC , system: Nuclear factor erythroid 2-related factor 2 (Homo sapiens) (UniProt Q16236). Its fold change (FC) is 1.34
